The following compounds are listed with their measured Th-T fluorescence, mean of three wells values.
Biological target: Aβ42 (Homo sapiens, UniProt P05067)
Sequence (P05067 672-713): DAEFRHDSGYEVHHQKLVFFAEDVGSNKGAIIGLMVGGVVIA
Assay: Th-T (thioflavin-T) assay of Aβ42 aggregation
Format: biochemical
Conditions: compound at 50; reading M62 of time course

These solved cases illustrate the format of a correct answer.
C=C1CC[C@@H]2[C@](C)(CC[C@H]3O[C@H](C=C(C)C)C[C@@]23C)[C@@H]1Cc1c(OC)oc(CO)c(C(=O)OC)c1=O [Compound 21] = 0.2296
C=C1CC[C@@H]2[C@](C)(CC[C@H]3O[C@H](C=C(C)C)C[C@@]23C)[C@@H]1Cc1c(OC)oc(CO)c(C)c1=O [Compound 20] = 2.094

Field request: Th-T fluorescence, mean of three wells | item: C=C1CCC2C(C)(CCC=C(C)C)C(O)CCC2(C)C1Cc1c(OC)oc(CO)c(C(=O)OC)c1=O (centres unmarked) [Compound 13]
0.4707

Can you share its Th-T fluorescence, mean of three wells? I mean this compound: C=C1CCC2C(C)(CCC=C(C)C)C(O)CCC2(C)C1Cc1c(OC)oc(CO)c(C)c1=O (centres unmarked) [Compound 12]
1.445

Fill in the blank: the reported Th-T fluorescence, mean of three wells of C=C1CCC2C(C)(CCC=C(C)C)C(O)CCC2(C)C1Cc1c(OC)oc(C)c(C(=O)OC)c1=O (centres unmarked) [Compound 14] is ____.
3.946

---

Target: Aβ42 (Homo sapiens, UniProt P05067)
Assay: Th-T (thioflavin-T) assay of Aβ42 aggregation
Assay type: biochemical
Conditions: column suffix _20; reading M91
Documented Fig. 7a Th-T reading, mean of three wells across a set of compounds
Please respond with just the number, no unit label.

C=C1CC[C@@H]2[C@](C)(CC[C@H]3O[C@H](C=C(C)C)C[C@@]23C)[C@@H]1Cc1c(OC)oc(CO)c(C)c1=O [Compound 20] = 3.299
C=C1CCC2C(C)(CCC=C(C)C)C(O)CCC2(C)C1Cc1c(OC)oc(CO)c(C)c1=O (centres unmarked) [Compound 12] = 2.094
C=C1CCC2C(C)(CCC=C(C)C)C(O)CCC2(C)C1Cc1c(OC)oc(C)c(C(=O)OC)c1=O (centres unmarked) [Compound 14] = 1.818
C=C1CC[C@@H]2[C@](C)(CC[C@H]3O[C@H](C=C(C)C)C[C@@]23C)[C@@H]1Cc1c(OC)oc(CO)c(C(=O)OC)c1=O [Compound 21] = 0.7994

Consider the record given below.
Entry C=C1CCC2C(C)(CCC=C(C)C)C(O)CCC2(C)C1Cc1c(OC)oc(CO)c(C(=O)OC)c1=O (centres unmarked) [Compound 13] : reported Fig. 7a Th-T reading, mean of three wells = ?
1.0453

---

Catalogue of Th-T fluorescence, mean of three wells values
Molecular target: Aβ42 (Homo sapiens, UniProt P05067)
Assay: Th-T (thioflavin-T) assay of Aβ42 aggregation
Type: biochemical
Details: reading M35; Supplementary Fig. 47 source data

C=C1CC[C@@H]2[C@](C)(CC[C@H]3O[C@H](C=C(C)C)C[C@@]23C)[C@@H]1Cc1c(O)c(C)c(C)oc1=O = 3.001
C=C1CC[C@H]2[C@]3(C)C[C@@H](C=C(C)C)O[C@H]3CC[C@]2(C)[C@@H]1Cc1c(OC)oc(CO)c(C)c1=O = 3.103

Requested field: Th-T fluorescence, mean of three wells. Item: `C=C1CC[C@H]2[C@]3(C)C[C@@H](C=C(C)C)O[C@H]3CC[C@]2(C)[C@@H]1Cc1c(O)c(C)c(C)oc1=O`
2.566

I have this molecule here, C=C1CCC2C3(C)CC(C=C(C)C)OC3CCC2(C)C1Cc1c(OC)oc(C)c(C)c1=O (stereo not drawn) , and I need its recorded Th-T fluorescence, mean of three wells.
3.851

I have this molecule here, C=C1CCC2C(C)(CC(=O)C=C(C)C)C(O)CCC2(C)C1Cc1c(OC)oc(C)c(C)c1=O (stereo not drawn) , and I need its recorded Th-T fluorescence, mean of three wells.
3.708

Fill in the blank: the reported Th-T fluorescence, mean of three wells of C=C1CCC2C(C)(CC(=O)C=C(C)C)C(O)CCC2(C)C1Cc1c(OC)oc(CO)c(C)c1=O (stereo not drawn) is ____.
3.364

Name the recorded Th-T fluorescence, mean of three wells for C=C1CCC2C(C)(CC(=O)C=C(C)C)C(O)CCC2(C)C1Cc1c(O)c(C)c(C)oc1=O (stereo not drawn) .
3.5187

The reported numbers originate from paper PMC7156458.
